Molecular target: SIRT1 (Homo sapiens)
Sequence (Q96EB6 1-747): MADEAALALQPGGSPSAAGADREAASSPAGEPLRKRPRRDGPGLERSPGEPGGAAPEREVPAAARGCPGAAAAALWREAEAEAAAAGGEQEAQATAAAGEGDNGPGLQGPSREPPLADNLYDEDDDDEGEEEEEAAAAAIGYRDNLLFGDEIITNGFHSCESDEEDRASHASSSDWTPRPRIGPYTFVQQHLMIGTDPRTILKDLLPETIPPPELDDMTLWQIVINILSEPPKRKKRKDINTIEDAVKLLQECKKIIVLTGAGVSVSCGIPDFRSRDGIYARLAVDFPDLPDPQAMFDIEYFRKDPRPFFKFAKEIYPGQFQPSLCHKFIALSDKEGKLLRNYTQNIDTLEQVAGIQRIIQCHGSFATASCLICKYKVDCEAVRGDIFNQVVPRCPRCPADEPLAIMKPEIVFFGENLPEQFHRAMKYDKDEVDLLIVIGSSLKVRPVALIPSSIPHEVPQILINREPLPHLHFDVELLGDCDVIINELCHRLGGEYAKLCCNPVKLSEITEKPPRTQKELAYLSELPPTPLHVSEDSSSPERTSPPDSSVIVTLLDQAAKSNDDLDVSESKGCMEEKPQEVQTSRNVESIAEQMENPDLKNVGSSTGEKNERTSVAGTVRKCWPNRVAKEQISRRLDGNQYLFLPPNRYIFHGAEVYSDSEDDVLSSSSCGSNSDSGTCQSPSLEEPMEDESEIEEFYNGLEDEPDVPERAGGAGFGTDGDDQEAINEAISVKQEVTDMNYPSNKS
Assay: Mass spectrometry based assay to identify modulators of SIRT1 activity (deacetylation of p53-based acetylated peptide)
Assay type: biochemical
Settings: SIRT1 activation; 10 nM SIRT1, 0.5 μM peptide substrate, 120 μM βNAD+, 25 minutes at 25° C.

- compound_string: "O=C(Nc1cccc2c(=O)cc(-c3cccc(C(F)(F)F)c3)[nH]c12)c1ncccn1"
  EC1.5 μM: "A (EC1.5<1.0 μM)"
- compound_string: "Cn1c(-c2cccc(C(F)(F)F)c2)nc2c(C(=O)Nc3ccnc(CN4CCNCC4)n3)cccc2c1=O"
  EC1.5 μM: "A (EC1.5<1.0 μM)"
- compound_string: "Cn1nccc1-c1nc2c(C(=O)Nc3ccccn3)cccc2c(=O)n1C"
  EC1.5 μM: "C (EC1.5>25 μM)"
- compound_string: "Cn1ccnc1C(=O)Nc1cccc2c(=O)cc(-c3cccc(C(F)(F)F)c3)[nH]c12"
  EC1.5 μM: "A (EC1.5<1.0 μM)"
- compound_string: "Cn1ccnc1-c1nc2c(C(=O)Nc3ccccn3)cccc2c(=O)n1C"
  EC1.5 μM: "C (EC1.5>25 μM)"
